# measured-target: TweCA (TweCAδ) (Conticribra weissflogii)
# Construct: gene ca1; recombinant, obtained in-house as reported earlier
# Sequence (Q5U9J1 1-281): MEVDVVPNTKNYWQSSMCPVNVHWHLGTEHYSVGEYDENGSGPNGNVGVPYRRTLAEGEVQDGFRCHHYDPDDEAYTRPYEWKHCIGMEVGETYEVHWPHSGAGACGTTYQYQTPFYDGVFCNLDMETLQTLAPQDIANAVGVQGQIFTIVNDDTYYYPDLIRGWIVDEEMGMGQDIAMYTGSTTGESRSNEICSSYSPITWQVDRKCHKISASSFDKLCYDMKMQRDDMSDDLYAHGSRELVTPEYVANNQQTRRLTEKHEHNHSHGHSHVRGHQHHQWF
# method-description: stopped-flow CO2 hydration assay
# Assay type: biochemical
reported-property: Ki (µM)
Report the value in µM with no unit label.

Here's what some known entries look like.
Oc1ccccc1O: 4.5
Oc1ccccc1 [compound 1, phenol (R = H)]: 52.3
O=C(O)c1ccccc1O: 0.95
O=C(O)c1cc(O)ccc1O: 0.81
O=C(O)/C=C/c1ccc(O)c(O)c1: 5.9

Just so you know, measured Ki for "O=C(O)c1c(O)cccc1O" came out at 2.7

Just so you know, measured Ki for "Nc1cccc(O)c1" came out at 65.4

Just so you know, measured Ki for "Nc1ccc(O)cc1" came out at 17.6

Just so you know, measured Ki for "Oc1cc(F)cc(F)c1" came out at 21

Just so you know, measured Ki for "O=C(O)c1ccc(O)c(O)c1" came out at 4.9

Just so you know, measured Ki for "O=C(O)/C=C/c1ccc(O)cc1" came out at 14.5

Just so you know, measured Ki for "Oc1c(F)cc(F)cc1F" came out at 13.8

Just so you know, measured Ki for "CC(=O)Nc1ccc(O)cc1" came out at 7.9

Just so you know, measured Ki for "Oc1ccc(O)cc1" came out at 34.9

Just so you know, measured Ki for "Oc1ccc(O)c(O)c1" came out at 2

Just so you know, measured Ki for "OCc1ccc(O)cc1" came out at 35.9

Just so you know, measured Ki for "O=C(O)c1ccc(O)cc1" came out at 1.4

Just so you know, measured Ki for "Oc1cccc(O)c1" came out at 48.2

Just so you know, measured Ki for "N#Cc1ccc(O)cc1" came out at 56.9

Just so you know, measured Ki for "Oc1cc(F)ccc1F" came out at 30.7
